- experimental-system: human recombinant serotonin (5-Hydroxytryptamine) 5-HT6 receptor (Homo sapiens, UniProt P50406)
- Construct: expressed in transfected cells; host or cells: human HeLa cells
- Sequence (P50406 whole entry): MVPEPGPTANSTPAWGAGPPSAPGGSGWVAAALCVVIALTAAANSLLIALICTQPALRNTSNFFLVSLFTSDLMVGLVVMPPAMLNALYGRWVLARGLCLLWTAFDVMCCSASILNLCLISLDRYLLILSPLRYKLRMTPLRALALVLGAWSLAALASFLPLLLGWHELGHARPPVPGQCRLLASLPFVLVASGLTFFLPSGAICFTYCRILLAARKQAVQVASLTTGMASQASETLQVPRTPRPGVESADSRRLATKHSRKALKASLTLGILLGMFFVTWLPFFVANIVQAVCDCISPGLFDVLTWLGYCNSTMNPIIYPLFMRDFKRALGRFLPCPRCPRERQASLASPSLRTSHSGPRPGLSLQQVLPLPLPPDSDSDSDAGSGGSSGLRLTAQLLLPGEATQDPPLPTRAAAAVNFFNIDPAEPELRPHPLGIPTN
- protocol-details: Serotonin 5-HT6 radioligand binding ([3H]LSD)
- Design: concentration or dose not given beside the values
- test-parameters: percent inhibition of specific binding
A collection of compounds and their measured Inhibition of ligand binding, Ser. 5-HT6
measured-endpoint: Inhibition of ligand binding, Ser. 5-HT6 (%)

1. CN1CCc2c(c3cc(Cl)ccc3n2CCc2cncc(Cl)c2)C1 [Compound 444]: 96
2. Cc1ccc2c(c1)c1c(n2CCc2ccc(C)nc2)CC(=O)N(C)C1 [Compound 195]: 8
3. Cc1ccc2c(c1)c1c(n2CCc2cnccn2)CCN(C)C1 [Compound 62]: 83
4. Cc1ccc2c(c1)c1c(n2CC(=O)N2CCC(C)CC2)CCN(C)C1 [Compound 251]: 7
5. Cc1ccc2c(c1)c1c(n2CCC2CCCCC2)CCN(C)C1 [Compound 163]: 99
6. Cc1ccc2c(c1)c1c(n2CCc2ccccc2F)CCN(C)C1 [Compound 34]: 104
7. CCCc1ccc(CCn2c3c(c4cc(C)ccc42)CN(C)CC3)cn1 [Compound 452]: 93
8. Cc1ccc2c(c1)c1c(n2CCN2CCCCC2)CCN(C)C1 [Compound 224]: 43
9. CCc1ccc2c(c1)c1c(n2CCc2cnc(C)nc2)CCN(C)C1 [Compound 362]: 61
10. CCN1CCc2c(c3cc(C)ccc3n2CCc2ccc(C)nc2)C1 [Compound 31]: 64
11. CN1CCc2c(c3cc(Cl)ccc3n2CCN2CCOCC2)C1 [Compound 186]: 83
12. CN1CCc2c(c3ccccc3n2CCc2ccncc2)C1 [Compound 10]: 32
13. CC1CN(C(=O)Cn2c3c(c4cc(Cl)ccc42)CN(C)CC3)CC(C)N1 (stereo not shown) [Compound 245]: −2
14. CCOC(=O)N1CCc2c(c3cc(C)ccc3n2CCc2ccccc2)C1 [Compound 24]: −4
15. Cc1ccc2c(c1)c1c(n2CCCc2ccccn2)CCN(C)C1 [Compound 233]: 95
16. Cc1ccc(CCn2c3c(c4cc(Cl)ccc42)CN(C)CC3)cc1 [Compound 43]: 102
17. Cc1ccc2c(c1)c1c(n2CCC(=O)N2CCC(NC(=O)OC(C)(C)C)CC2)CCN(C)C1 [Compound 393]: 3
18. CN1CCN(CCn2c3c(c4cc(Cl)ccc42)CN(C)CC3)CC1 [Compound 417]: 5
19. Cc1ccc2c(c1)c1c(n2CCc2ccc(OC(C)(C)C)cc2)CCN(C)C1 [Compound 335]: 9

---

- experimental-system: human recombinant histamine H2 receptor (Homo sapiens, UniProt P25021)
- Construct: expressed in transfected cells; host or cells: CHO-K1 cells
- Sequence (P25021 whole entry): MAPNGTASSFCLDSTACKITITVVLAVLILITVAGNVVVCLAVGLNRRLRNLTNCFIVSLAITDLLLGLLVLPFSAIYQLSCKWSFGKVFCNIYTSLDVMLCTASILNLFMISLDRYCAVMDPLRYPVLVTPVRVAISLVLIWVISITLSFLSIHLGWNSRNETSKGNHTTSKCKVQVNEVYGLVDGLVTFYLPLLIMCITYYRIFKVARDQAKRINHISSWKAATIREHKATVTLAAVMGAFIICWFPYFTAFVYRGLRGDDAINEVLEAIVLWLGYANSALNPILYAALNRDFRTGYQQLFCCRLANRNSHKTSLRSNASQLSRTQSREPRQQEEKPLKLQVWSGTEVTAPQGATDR
- protocol-details: Histamine H2 radioligand binding ([125I]Aminopotentidine)
- test-parameters: percent inhibition of specific binding; screened at 1 μM; read-out: Inhibition of ligand binding, Hist. H2
Kindly return 1 (yes) if reported inhibition at 1 µM is no lower than 80%; return 0 (no) if it is lower.

1) CN1CCc2c(c3cc(Cl)ccc3n2CCc2ccccc2)C1: 1 (yes)
2) CN1CCc2c(c3cc(Cl)ccc3n2CC(=O)N2CCNCC2)C1: 0 (no)
3) Cc1ncc(CCn2c3c(c4cc(Cl)ccc42)CN(C)CC3)cn1: 0 (no)
4) Cc1ccc2c(c1)c1c(n2CCc2cncc(C(F)(F)F)c2)CCN(C)C1: 1 (yes)
5) Cc1ccc(CCn2c3c(c4cc(Cl)ccc42)CN(C)CC3)cc1: 1 (yes)

---

- System: synaptosomes of cortex of rat brain
- protocol-details: Glutamate-induced 45Ca2+ uptake into synaptosomes
- Format: biochemical, Wistar rats
- test-parameters: compound 0.1 μM, rat cortex synaptosomes
- Protocol: Synaptosomes were obtained from cerebral cortex of newborn (9-10 days) Wistar rats using standard Hajos method. The brain was homogenized with 10 volumes of cooled 0.32 M sucrose at 900 rpm. The homogenate was centrifuged at 1500 g for 10 min. and the resulted supernatant was centrifuged at 10000 g for 20 min. […] The radioactivity probes were analyzed by fluid scintillation beta-analyzer (TriCarb, Perkin Elmer). […]
Rule: % Ca of control (control-100%), glutamate-induced 45Ca2+ uptake into synaptosomes below 90% gives yes (1), anything at or above gives no (0).

1. CN1CCc2c(c3ccccc3n2CCc2nc(-c3ccccc3)cs2)C1: yes (1)
2. CN1CCc2c(c3ccccc3n2CCc2nc(-c3ccncc3)cs2)C1: no (0)
3. CN1CCc2c(c3cc(Cl)ccc3n2CCc2noc(-c3ccccc3)n2)C1: no (0)
4. CN1CCc2c(c3cc(Cl)ccc3n2CCc2nc(-c3ccccc3)cs2)C1: no (0)
5. Cc1ccc2c(c1)c1c(n2CCc2nc(-c3ccccc3)cs2)CCN(C)C1: no (0)
6. CN1CCc2c(c3ccccc3n2CCc2noc(-c3ccncc3)n2)C1: no (0)
7. CN1CCc2c(c3cc(F)ccc3n2CCc2noc(-c3ccccc3)n2)C1: no (0)
8. CN1CCc2c(c3cc(F)ccc3n2CCc2nc(-c3ccccc3)cs2)C1: yes (1)

---

- experimental-system: human recombinant adrenergic α2B receptor (Homo sapiens)
- Construct: expressed in transfected cells; host or cells: CHO-K1 cells
- Sequence (P18089 1-450): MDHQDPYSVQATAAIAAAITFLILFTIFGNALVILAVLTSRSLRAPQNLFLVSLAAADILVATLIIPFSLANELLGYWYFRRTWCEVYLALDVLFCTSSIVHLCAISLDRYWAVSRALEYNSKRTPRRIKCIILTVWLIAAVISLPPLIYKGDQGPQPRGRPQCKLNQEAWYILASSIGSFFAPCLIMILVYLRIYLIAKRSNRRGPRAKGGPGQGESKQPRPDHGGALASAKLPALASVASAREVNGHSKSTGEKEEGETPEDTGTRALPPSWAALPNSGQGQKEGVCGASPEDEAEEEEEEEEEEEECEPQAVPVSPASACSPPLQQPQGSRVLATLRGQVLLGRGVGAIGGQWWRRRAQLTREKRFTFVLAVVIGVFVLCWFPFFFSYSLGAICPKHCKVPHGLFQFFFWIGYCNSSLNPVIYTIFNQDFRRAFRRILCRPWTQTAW
- protocol-details: Adrenergic α2B radioligand binding ([3H]Rauwolscine)
- Parameters: concentration or dose not given beside the values
- test-parameters: percent inhibition of specific binding
A collection of compounds and their measured Inhibition of ligand binding, Adren. alpha2B
measured-endpoint: Inhibition of ligand binding, Adren. alpha2B (%)

1) CCN1CCc2c(c3cc(C)ccc3n2Cc2ccc(C)nc2)C1: 19
2) Cc1ccc(CCn2c3c(c4cc(Cl)ccc42)CN(C)CC3)cn1: 107
3) CC(C)N1CCN(C(=O)Cn2c3c(c4cc(Cl)ccc42)CN(C)CC3)CC1: 75
4) CC1CN(C(=O)Cn2c3c(c4cc(Cl)ccc42)CN(C)CC3)CC(C)N1 (stereo not shown): 19
5) CN1CCc2c(c3cc(Cl)ccc3n2CC(=O)N2CCNC(=O)C2)C1: 11
6) Cc1ccc2c(c1)c1c(n2CC(=O)N2CCCC(C)C2)CCN(C)C1 (stereo not shown): 3
7) CCOC(=O)N1CCc2c(c3cc(C)ccc3n2CCc2ccccc2)C1: −1
8) CCc1ccc2c(c1)c1c(n2CCc2cnc(C)cn2)CCN(C)C1: 109
9) CCN1CCc2c(c3ccccc3n2CCc2ccncc2)C1: 78
10) Cc1ccc2c(c1)c1c(n2CCc2ccc(F)cc2)CCN(C)C1: 100
11) CN1CCc2c(c3cc(Cl)ccc3n2CCc2cncc(C(F)(F)F)c2)C1: 98
12) CCN1CCc2c(c3cc(C)ccc3n2CCc2ccc(C)nc2)C1: 91
13) Cc1ccc2c(c1)c1c(n2CCc2ccc(C(=O)O)nc2)CCN(C)C1: 4
14) Cc1ccc2c(c1)c1c(n2CCc2ccc(OC(C)(C)C)cc2)CCN(C)C1: 104
15) CN1CCc2c(c3cc(C(F)(F)F)ccc3n2CCc2ccccc2)C1: 105
16) CN1CCc2c(c3cc(Cl)ccc3n2CCc2ccc(F)cc2)C1: 112
17) Cc1ccc(CCn2c3c(c4cc(C)ccc42)CN(C)CC3)cc1: 108
18) Cc1ccc2c(c1)c1c(n2CCCc2ccc(C(F)(F)F)nc2)CCN(C)C1: 105
19) CC(C)c1ccc(CCn2c3c(c4cc(Cl)ccc42)CN(C)CC3)cn1: 110

---

A collection of compounds and their measured kainic acid-induced currents in Purkinje cells, % of Control values
- System: AMPA receptors
- protocol-details: AMPA-receptor activity: kainic acid-induced currents in Purkinje cells (patch-clamp)
- Assay type: cell-based, rat
- test-parameters: compound 10^−5 M, mean±SEM, control=100%
measured-endpoint: kainic acid-induced currents in Purkinje cells, % of Control values (%)

1. Cc1ccc2c(c1)c1c(n2CCc2noc(-c3ccccc3)n2)CCN(C)C1: 150
2. CN1CCc2c(c3ccccc3n2CCc2noc(-c3ccncc3)n2)C1: 100
3. Cc1ccc2c(c1)c1c(n2CCc2nc(-c3ccccc3)cs2)CCN(C)C1: 126
4. CN1CCc2c(c3cc(Cl)ccc3n2CCc2nc(-c3ccccc3)cs2)C1: 105
5. CN1CCc2c(c3cc(Cl)ccc3n2CCc2noc(-c3ccccc3)n2)C1: 152
6. CN1CCc2c(c3ccccc3n2CCc2noc(-c3ccccc3)n2)C1: 97
7. CN1CCc2c(c3ccccc3n2CCc2nc(-c3ccncc3)cs2)C1: 100
8. COc1ccc2c(c1)c1c(n2CCc2nc(-c3ccccc3)cs2)CCN(C)C1: 135
